Data origin, for the record: the Human Domainome abundance scans (Beltran et al. 2025)

B1: Membrane-associated guanylate kinase, WW and PDZ domain-containing protein 2, residues 601 to 682; numbered along this chain, Q86UL8 (parent)
chain: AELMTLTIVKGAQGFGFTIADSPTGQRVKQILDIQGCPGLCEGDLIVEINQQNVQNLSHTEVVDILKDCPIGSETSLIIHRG

Variants of: B1
Experiment: abundance fitness (aPCA) (normalised: wild type 0, dead -1); higher = more abundant; growth selection in yeast, the domain comes from the species named
Details: Homo sapiens
Values of abundance fitness greater than or equal to -0.09 map to rule met; values below map to rule not met.

changes: L57C
label-class: rule met

changes: G72A
label-class: rule met

changes: G43F
label-class: rule not met

changes: E42R
label-class: rule not met

changes: K67E
label-class: rule met

Let us examine a further case.
Challenge: For this variant, is measured abundance fitness -0.09 or higher? `D21K`
Response given: rule met
